The reported numbers originate from patent US20220073608A1.

# SUBJECT_OF_TEST: T1, hSEMA4D ECD-His (His-tagged human SEMA4D protein extracellular domain, Met22-Arg734) (human, UniProt Q92854 22-734)
# T1 construct: Expressed in CHO-S cells, purified on Ni column; also called protein immunogen; immunogen A; not shown: His tag of the pCP vector
# T1 sequence: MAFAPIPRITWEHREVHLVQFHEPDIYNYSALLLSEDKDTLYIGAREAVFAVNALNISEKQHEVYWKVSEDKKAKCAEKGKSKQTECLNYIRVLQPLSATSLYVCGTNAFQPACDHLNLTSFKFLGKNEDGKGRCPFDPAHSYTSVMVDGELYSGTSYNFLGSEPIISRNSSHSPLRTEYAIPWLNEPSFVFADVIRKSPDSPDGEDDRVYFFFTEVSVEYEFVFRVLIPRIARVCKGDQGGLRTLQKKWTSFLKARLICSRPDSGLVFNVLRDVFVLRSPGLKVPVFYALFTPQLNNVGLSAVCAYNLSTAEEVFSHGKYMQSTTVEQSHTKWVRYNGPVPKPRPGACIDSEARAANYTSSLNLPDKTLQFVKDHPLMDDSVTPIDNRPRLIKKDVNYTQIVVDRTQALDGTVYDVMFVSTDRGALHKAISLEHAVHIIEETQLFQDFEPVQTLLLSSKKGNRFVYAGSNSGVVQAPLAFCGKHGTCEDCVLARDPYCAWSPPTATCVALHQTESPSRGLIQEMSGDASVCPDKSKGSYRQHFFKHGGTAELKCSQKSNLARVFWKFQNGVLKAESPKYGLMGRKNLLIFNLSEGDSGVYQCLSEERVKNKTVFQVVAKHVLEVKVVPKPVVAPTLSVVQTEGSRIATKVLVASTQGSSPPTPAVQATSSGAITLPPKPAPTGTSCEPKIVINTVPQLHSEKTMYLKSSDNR
# PROCEDURE_SUMMARY: ELISA, coated hSEMA4D ECD-His; Ab 6.67 nM
READOUT: OD450 nm

>>> quantitative_readout("37F11F9 (antibody, V domains shown, Mouse monoclonal antibody purified from hybridoma supernatant on protein A) VH: EVQLQQSGPVLVKPGASVKMSCKASGYTFTDYYMNWVKQSHGKSLEWIGLINPYSGGSTFNQKFKAKATLTVDKSSSSAYMDLNSLTSEDSAVYYCARVGDGYYGVTHGMDYWGQGTSVTVSS VL: DIVMTPSQKFMSTTVGDRVSITCKASQNVGTAVAWYQQKPGQSPTILIYSASNRYTGVPDRFTGSGSGTDFTLTISNMKSEDLADYFCQQYYIYPFTFAAGTKLELK")
1.54
>>> quantitative_readout("31C11G2 (antibody, V domains shown, Mouse monoclonal antibody purified from hybridoma supernatant on protein A) VH: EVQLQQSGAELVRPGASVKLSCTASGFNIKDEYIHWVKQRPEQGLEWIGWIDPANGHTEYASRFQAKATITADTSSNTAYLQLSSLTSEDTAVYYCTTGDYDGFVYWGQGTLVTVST VL: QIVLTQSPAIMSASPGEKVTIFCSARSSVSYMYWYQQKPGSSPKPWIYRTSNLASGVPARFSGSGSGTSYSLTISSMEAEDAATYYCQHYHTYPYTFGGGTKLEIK")
1.74
>>> quantitative_readout("38H2E3 (antibody, V domains shown, Mouse monoclonal antibody purified from hybridoma supernatant on protein A) VH: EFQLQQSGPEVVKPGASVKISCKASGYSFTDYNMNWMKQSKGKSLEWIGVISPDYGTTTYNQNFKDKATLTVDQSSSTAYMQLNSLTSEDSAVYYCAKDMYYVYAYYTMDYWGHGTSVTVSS VL: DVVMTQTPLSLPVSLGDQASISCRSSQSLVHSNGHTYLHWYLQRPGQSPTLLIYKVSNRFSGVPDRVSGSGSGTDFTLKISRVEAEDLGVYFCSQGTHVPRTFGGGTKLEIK")
1.46
>>> quantitative_readout("42B7G2 (antibody, V domains shown, Mouse monoclonal antibody purified from hybridoma supernatant on protein A) VH: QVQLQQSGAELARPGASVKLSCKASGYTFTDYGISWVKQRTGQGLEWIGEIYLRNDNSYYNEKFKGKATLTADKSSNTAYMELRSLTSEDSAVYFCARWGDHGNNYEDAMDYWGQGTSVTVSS VL: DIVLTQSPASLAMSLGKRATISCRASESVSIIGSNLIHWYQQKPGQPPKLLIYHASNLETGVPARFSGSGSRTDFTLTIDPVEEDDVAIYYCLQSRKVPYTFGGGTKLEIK")
2.07
>>> quantitative_readout("37C4F7 (antibody, V domains shown, Mouse monoclonal antibody purified from hybridoma supernatant on protein A) VH: EFQLQQSGPEVVKPGASVKISCKASGYSFTDYNMNWMKQSKGKSLEWIGVINPNYGTTTYNQNFKGKATLTVDQSSSTAYMQLNSLTSEDSAVYYCARDMYYVYAYYTMDYWGQGTSVTVSS VL: DVVMTQTPLSLPVSLGDQASISCRSSQSLVHSNGHTYLHWYLQRPGQSPTLLIYKVSNRFSGVPDRFSGSGSGTDFTLKISRVEAEDLGVYFCSQGTHVPWTFGGGTKLEIK")
1.19
>>> quantitative_readout("32C8F10 (antibody, V domains shown, Mouse monoclonal antibody purified from hybridoma supernatant on protein A) VH: EVQLQQSGAELVRPGASVKLSCTASGFNIKDEYIHWVKQRPEQGLEWIGWIDPANGHTEYASRFQAKATITADTSSNTAYLQLSSLTSEDTAVYYCTTGDYDGFAYWGQGTLVTVST VL: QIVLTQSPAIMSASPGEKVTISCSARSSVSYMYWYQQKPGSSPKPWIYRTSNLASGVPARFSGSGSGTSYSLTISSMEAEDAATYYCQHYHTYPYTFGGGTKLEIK")
2.32
>>> quantitative_readout("31G10C5 (antibody, V domains shown, Mouse monoclonal antibody purified from hybridoma supernatant on protein A) VH: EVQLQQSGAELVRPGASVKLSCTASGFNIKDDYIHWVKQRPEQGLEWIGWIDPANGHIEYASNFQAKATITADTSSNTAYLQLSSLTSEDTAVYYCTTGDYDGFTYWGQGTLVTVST VL: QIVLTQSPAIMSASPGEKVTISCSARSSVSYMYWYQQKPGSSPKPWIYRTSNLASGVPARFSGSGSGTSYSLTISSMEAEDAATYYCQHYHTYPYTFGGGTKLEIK")
1.59
